Task for the reader: assign each of the following compounds its reported Kb.
experimental.target: δ opioid receptors (Mus musculus, UniProt P32300)
Construct: Bioassays Using Isolated Organ Preparations; from tissue; host or cells: mouse vas deferens (isolated organ)
Sequence (P32300 whole entry): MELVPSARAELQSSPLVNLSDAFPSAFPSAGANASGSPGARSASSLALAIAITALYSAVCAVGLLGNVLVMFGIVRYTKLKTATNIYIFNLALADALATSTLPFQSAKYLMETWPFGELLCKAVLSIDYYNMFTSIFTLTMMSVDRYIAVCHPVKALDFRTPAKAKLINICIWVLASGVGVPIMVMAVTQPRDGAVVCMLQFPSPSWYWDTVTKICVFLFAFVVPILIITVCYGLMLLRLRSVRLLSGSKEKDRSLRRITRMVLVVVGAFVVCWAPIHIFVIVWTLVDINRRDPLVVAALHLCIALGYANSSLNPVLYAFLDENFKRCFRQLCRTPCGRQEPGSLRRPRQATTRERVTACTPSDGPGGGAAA
protocol.notes: Mouse vas deferens (MVD) bioassay, antagonism of electrically evoked contraction inhibition by δ-selective agonists
Assay type: tissue-based
condition.parameters: Ke (nM) against DPDPE, MVD assay; δ agonist DPDPE; means of 3-8 determinations
Peptide text beside a SMILES is read from it.
One number for each entry, in nM.

compound	readout.unit	data.value
Cc1cc(O)cc(C)c1C[C@H](N)C(=O)N1Cc2ccccc2C[C@H]1CN[C@@H](Cc1ccccc1)C(=O)N[C@@H](Cc1ccccc1)C(=O)O [HDmtTic.psi.[CH2NH]PhePheOH, H-Dmt-Tic.PSI.[CH2 --NH]Phe-Phe-OH]	nM	0.196
CN[C@@H](Cc1ccc(O)cc1)C(=O)N1Cc2ccccc2C[C@H]1C(=O)N[C@@H](Cc1ccccc1)C(=O)N[C@@H](Cc1ccccc1)C(=O)O [Tyr(N^α Me)-TicPhePheOH, Tyr(N^α Me)-Tic-Phe-Phe-OH] (HELM PEPTIDE1{[meY].[Tic].F.F}$$$$V2.0)	nM	1.22
N[C@@H](Cc1ccc(O)cc1)C(=O)N1Cc2ccccc2C[C@H]1C(=O)N[C@@H](Cc1ccccc1)C(=O)N[C@@H](Cc1ccc([N+](=O)[O-])cc1)C(=O)O [HTyrTicPhePhe(pNO2)OH, H-Tyr-Tic-Phe-Phe(pNO2)-OH] (HELM PEPTIDE1{Y.[Tic].F.[O=C(O)[C@H](Cc1ccc([N+](=O)[O-])cc1)N[*:1]]}$$$$V2.0)	nM	3.3
NC(=O)[C@H](Cc1c[nH]c2ccccc12)NC(=O)[C@H](Cc1ccccc1)NC(=O)[C@@H]1Cc2ccccc2CN1C(=O)[C@@H](N)Cc1ccc(O)cc1 [HTyrTicPheTrpNH2, H-Tyr-Tic-Phe-Trp-NH2] (HELM PEPTIDE1{Y.[Tic].F.W.[am]}$$$$V2.0)	nM	41.3

Now, please, on to the next compound.
Problem: Using the record for O=C(O)[C@H](Cc1ccccc1)NC(=O)[C@H](Cc1ccccc1)NC(=O)[C@@H]1Cc2ccccc2CN1C(=O)[C@H](Cc1ccc(O)cc1)NCC1CC1 , report its Kb.
Result: 28.2
